Hello, the source for this data is ChEMBL document CHEMBL4196084, in case you need it.

Let's go through some IC50 measurements on Acetylcholinesterase (Homo sapiens) together.
Sequence (P22303 whole entry): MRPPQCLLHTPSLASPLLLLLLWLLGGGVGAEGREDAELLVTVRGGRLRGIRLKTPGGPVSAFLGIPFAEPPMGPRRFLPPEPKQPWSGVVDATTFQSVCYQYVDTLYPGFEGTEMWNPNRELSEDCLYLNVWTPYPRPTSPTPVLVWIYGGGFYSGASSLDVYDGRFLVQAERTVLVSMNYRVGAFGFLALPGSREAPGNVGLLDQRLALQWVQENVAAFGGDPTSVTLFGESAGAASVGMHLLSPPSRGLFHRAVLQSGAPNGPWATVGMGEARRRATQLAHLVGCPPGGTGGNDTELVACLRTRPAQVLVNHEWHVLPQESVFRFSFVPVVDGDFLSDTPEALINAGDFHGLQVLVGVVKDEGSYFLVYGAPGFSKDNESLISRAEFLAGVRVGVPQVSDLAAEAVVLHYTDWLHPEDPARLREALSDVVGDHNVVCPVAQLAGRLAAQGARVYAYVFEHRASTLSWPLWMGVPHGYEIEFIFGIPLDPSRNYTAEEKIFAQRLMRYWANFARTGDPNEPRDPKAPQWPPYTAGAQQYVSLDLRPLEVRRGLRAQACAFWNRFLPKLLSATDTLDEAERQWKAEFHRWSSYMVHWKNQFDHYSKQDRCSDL
property: IC50

> print(dat)
                  compound.structure.string  measured.value
1  COc1ccc(Cn2cc(C(=O)NCCCCCCNc3c4c(nc5ccc(OC)cc35)CCCC4)c(=O)c3ccccc32)cc1        10000 nM
2  COc1ccc(Cn2cc(C(=O)NCCNc3c4c(nc5cc(Cl)ccc35)CCCC4)c(=O)c3ccccc32)cc1         74.5 nM
3  COc1ccc(Cn2cc(C(=O)NCCCNc3c4c(nc5ccc(OC)cc35)CCCC4)c(=O)c3ccccc32)cc1         2240 nM
4  COc1ccc(Cn2cc(C(=O)NCCCCCCNc3c4c(nc5ccccc35)CCCC4)c(=O)c3ccccc32)cc1          194 nM
5  COc1ccc(Cn2cc(C(=O)NCCCCNc3c4c(nc5ccc(OC)cc35)CCCC4)c(=O)c3ccccc32)cc1         9500 nM

====

test-system: Muscarinic acetylcholine receptor M1 (Homo sapiens, UniProt P11229)
Sequence (P11229 whole entry): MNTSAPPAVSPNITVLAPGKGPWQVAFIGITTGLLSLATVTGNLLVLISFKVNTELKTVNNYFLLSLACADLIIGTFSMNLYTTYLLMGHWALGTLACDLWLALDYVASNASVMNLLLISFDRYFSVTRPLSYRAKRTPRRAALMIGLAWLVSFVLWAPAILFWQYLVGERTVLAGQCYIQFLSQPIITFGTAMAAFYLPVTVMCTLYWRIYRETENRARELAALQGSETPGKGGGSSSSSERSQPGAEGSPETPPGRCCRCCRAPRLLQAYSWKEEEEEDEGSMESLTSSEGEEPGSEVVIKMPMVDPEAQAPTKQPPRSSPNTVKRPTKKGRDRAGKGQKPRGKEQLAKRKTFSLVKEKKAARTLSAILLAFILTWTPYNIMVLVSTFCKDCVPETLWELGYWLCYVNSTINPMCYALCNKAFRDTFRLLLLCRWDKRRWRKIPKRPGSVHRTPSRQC
pIC50: −log10 of the molar value.
property: pIC50

> print(dat)
                  compound.structure.string                               test.system  measured.value
1  COc1ccc(Cn2cc(C(=O)NCCCCCNc3c4c(nc5ccc(OC)cc35)CCCC4)c(=O)c3ccccc32)cc1  Muscarinic acetylcholine receptor M1 (Homo sapiens, UniProt P11229)            5.86
2               Nc1c2c(nc3cc(Cl)ccc13)CCCC2  Muscarinic acetylcholine receptor M1 (Homo sapiens, UniProt P11229)            5.22
3  COc1ccc(Cn2cc(C(=O)NCCNc3c4c(nc5ccc(OC)cc35)CCCC4)c(=O)c3ccccc32)cc1  Muscarinic acetylcholine receptor M1 (Homo sapiens, UniProt P11229)            5.43
4  COc1ccc(Cn2cc(C(=O)NCCCCCCCCNc3c4c(nc5cc(Cl)ccc35)CCCC4)c(=O)c3ccccc32)cc1  Muscarinic acetylcholine receptor M1 (Homo sapiens, UniProt P11229)            5.02
5  COc1ccc(Cn2cc(C(=O)NCCCCNc3c4c(nc5cc(Cl)ccc35)CCCC4)c(=O)c3ccccc32)cc1  Muscarinic acetylcholine receptor M1 (Homo sapiens, UniProt P11229)            5.39
6  COc1ccc(Cn2cc(C(=O)NCCCCCCNc3c4c(nc5ccc(OC)cc35)CCCC4)c(=O)c3ccccc32)cc1  Muscarinic acetylcholine receptor M1 (Homo sapiens, UniProt P11229)            5.06
7  COc1ccc(Cn2cc(C(=O)NCCCCCNc3c4c(nc5ccccc35)CCCC4)c(=O)c3ccccc32)cc1  Muscarinic acetylcholine receptor M1 (Homo sapiens, UniProt P11229)            5.83
8  COc1ccc(Cn2cc(C(=O)NCCCNc3c4c(nc5ccccc35)CCCC4)c(=O)c3ccccc32)cc1  Muscarinic acetylcholine receptor M1 (Homo sapiens, UniProt P11229)            6.34

====

IC50 data for UniProt:P06276 follow.
property: IC50 (nM)

> print(dat)
                  compound.structure.string  property  unit.text  measured.value
1  COc1ccc(Cn2cc(C(=O)NCCNc3c4c(nc5ccccc35)CCCC4)c(=O)c3ccccc32)cc1      IC50         nM            58.9
2  COc1ccc(Cn2cc(C(=O)NCCCCCCNc3c4c(nc5ccccc35)CCCC4)c(=O)c3ccccc32)cc1      IC50         nM             280
3  COc1ccc(Cn2cc(C(=O)NCCCCCCCCNc3c4c(nc5ccccc35)CCCC4)c(=O)c3ccccc32)cc1      IC50         nM            1280
4  COc1ccc(Cn2cc(C(=O)NCCNc3c4c(nc5ccc(OC)cc35)CCCC4)c(=O)c3ccccc32)cc1      IC50         nM             408

====

test-system: Acetylcholinesterase (Homo sapiens)
method-description: Mixed type inhibition of human erythrocyte AChE assessed as enzyme-inhibitor complex using varying levels of acetylthiocholine iodide as substrate preincubated for 5 mins followed by substrate addition by Lineweaver-Burk plot analysis
property: Ki (nM)

> print(dat)
                  compound.structure.string  measured.value
1  COc1ccc(Cn2cc(C(=O)NCCCNc3c4c(nc5cc(Cl)ccc35)CCCC4)c(=O)c3ccccc32)cc1            3.28

====

# collection of pIC50 values tested on Cholinesterase (Homo sapiens, UniProt P06276)
# Sequence (P06276 whole entry): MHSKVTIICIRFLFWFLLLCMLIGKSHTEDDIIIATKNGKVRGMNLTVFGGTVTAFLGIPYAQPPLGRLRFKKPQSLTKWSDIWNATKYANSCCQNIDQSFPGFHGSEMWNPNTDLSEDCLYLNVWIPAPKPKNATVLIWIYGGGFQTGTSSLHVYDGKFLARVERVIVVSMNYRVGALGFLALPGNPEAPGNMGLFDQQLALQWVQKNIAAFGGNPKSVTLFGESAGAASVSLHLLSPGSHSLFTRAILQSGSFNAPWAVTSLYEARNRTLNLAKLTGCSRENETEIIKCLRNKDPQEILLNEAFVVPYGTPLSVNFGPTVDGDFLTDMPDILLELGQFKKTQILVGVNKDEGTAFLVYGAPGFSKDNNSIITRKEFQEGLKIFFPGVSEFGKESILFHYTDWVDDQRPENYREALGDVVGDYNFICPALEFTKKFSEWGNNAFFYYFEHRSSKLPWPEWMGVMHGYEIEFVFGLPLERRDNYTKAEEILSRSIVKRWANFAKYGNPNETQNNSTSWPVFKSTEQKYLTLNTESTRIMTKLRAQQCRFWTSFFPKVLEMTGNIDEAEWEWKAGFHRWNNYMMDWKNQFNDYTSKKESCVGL
pIC50: −log10 of the molar value.
property: pIC50

> print(dat)
                   compound.structure.string                               test.system  qualifying.sign  measured.value
 1  COc1ccc(Cn2cc(C(=O)NCCCCCCCCNc3c4c(nc5ccc(OC)cc35)CCCC4)c(=O)c3ccccc32)cc1  Cholinesterase (Homo sapiens, UniProt P06276)                =            4.91
 2  COc1ccc(Cn2cc(C(=O)NCCCCCCNc3c4c(nc5cc(Cl)ccc35)CCCC4)c(=O)c3ccccc32)cc1  Cholinesterase (Homo sapiens, UniProt P06276)                =            4.87
 3  COc1ccc(Cn2cc(C(=O)NCCCCNc3c4c(nc5ccccc35)CCCC4)c(=O)c3ccccc32)cc1  Cholinesterase (Homo sapiens, UniProt P06276)                =            5.88
 4  COc1ccc(Cn2cc(C(=O)NCCCCNc3c4c(nc5ccc(OC)cc35)CCCC4)c(=O)c3ccccc32)cc1  Cholinesterase (Homo sapiens, UniProt P06276)                =            5.97
 5  COc1ccc(Cn2cc(C(=O)NCCCCCCNc3c4c(nc5ccc(OC)cc35)CCCC4)c(=O)c3ccccc32)cc1  Cholinesterase (Homo sapiens, UniProt P06276)                =            4.78
 6  COc1ccc(Cn2cc(C(=O)NCCCCCNc3c4c(nc5ccccc35)CCCC4)c(=O)c3ccccc32)cc1  Cholinesterase (Homo sapiens, UniProt P06276)                =            6.08
 7  COc1ccc(Cn2cc(C(=O)NCCCCCCCCNc3c4c(nc5cc(Cl)ccc35)CCCC4)c(=O)c3ccccc32)cc1  Cholinesterase (Homo sapiens, UniProt P06276)                =            4.43
 8  COc1ccc(Cn2cc(C(=O)NCCCCCCCNc3c4c(nc5cc(Cl)ccc35)CCCC4)c(=O)c3ccccc32)cc1  Cholinesterase (Homo sapiens, UniProt P06276)                =            5.48
 9   COc1ccc(Cn2cc(C(=O)O)c(=O)c3ccccc32)cc1  Cholinesterase (Homo sapiens, UniProt P06276)                <            3.00
10  COc1ccc(Cn2cc(C(=O)NCCCNc3c4c(nc5ccccc35)CCCC4)c(=O)c3ccccc32)cc1  Cholinesterase (Homo sapiens, UniProt P06276)                =            6.17

====

method-description: in vitro
measurement-setup: PAMPA
Bucketed by reported Papp at 100 µM, buckets being b0 (below 2 ×10⁻⁶ cm/s), b1 (2 ×10⁻⁶ cm/s to below 7 ×10⁻⁶ cm/s), b2 (7 ×10⁻⁶ cm/s or more)

> print(dat)
                   compound.structure.string  answer.label
 1  COc1ccc(Cn2cc(C(=O)NCCNc3c4c(nc5ccccc35)CCCC4)c(=O)c3ccccc32)cc1            b0
 2  COc1ccc(Cn2cc(C(=O)NCCCCCCNc3c4c(nc5ccccc35)CCCC4)c(=O)c3ccccc32)cc1            b1
 3  COc1ccc(Cn2cc(C(=O)NCCCNc3c4c(nc5ccc(OC)cc35)CCCC4)c(=O)c3ccccc32)cc1            b1
 4  COc1ccc(Cn2cc(C(=O)NCCNc3c4c(nc5ccc(OC)cc35)CCCC4)c(=O)c3ccccc32)cc1            b0
 5  COc1ccc(Cn2cc(C(=O)NCCCCCCCNc3c4c(nc5cc(Cl)ccc35)CCCC4)c(=O)c3ccccc32)cc1            b1
 6  COc1ccc(Cn2cc(C(=O)NCCCNc3c4c(nc5cc(Cl)ccc35)CCCC4)c(=O)c3ccccc32)cc1            b1
 7  COc1ccc(Cn2cc(C(=O)NCCNc3c4c(nc5cc(Cl)ccc35)CCCC4)c(=O)c3ccccc32)cc1            b1
 8  C[C@]12CC[C@H]3[C@@H](CCC4=CC(=O)CC[C@@]43C)[C@@H]1CC[C@@H]2O            b2
 9  COc1ccc(Cn2cc(C(=O)NCCCNc3c4c(nc5ccccc35)CCCC4)c(=O)c3ccccc32)cc1            b1
10  CC(=O)[C@H]1CC[C@H]2[C@@H]3CCC4=CC(=O)CC[C@]4(C)[C@H]3CC[C@]12C            b2
11  COc1ccc(Cn2cc(C(=O)NCCCCCCCNc3c4c(nc5ccc(OC)cc35)CCCC4)c(=O)c3ccccc32)cc1            b2
12              CN(C)CCCN1c2ccccc2Sc2ccccc21            b1
